Target: RSV MTase (Human respiratory syncytial virus A)
Sequence (P28887 1820-2008 limits assumed): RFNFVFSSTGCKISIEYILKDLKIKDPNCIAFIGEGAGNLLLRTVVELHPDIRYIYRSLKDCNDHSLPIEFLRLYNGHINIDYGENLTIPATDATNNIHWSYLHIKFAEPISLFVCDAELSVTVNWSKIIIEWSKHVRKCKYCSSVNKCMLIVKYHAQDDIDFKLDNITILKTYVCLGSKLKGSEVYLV
pIC50: −log10 of the molar value.
observationType: pIC50

Task: Param readout= pIC50; system= RSV MTase (Human respiratory syncytial virus A); entry= COc1nc(N)ncc1-c1cn(COCCOP(=O)(O)OP(=O)(O)OP(=O)(O)O)cn1 ; returns value.
Output: ~4.74

* * *

Biological target: hMPV MTase (Human metapneumovirus)
Sequence (Q6WB93 1599-2005 limits assumed): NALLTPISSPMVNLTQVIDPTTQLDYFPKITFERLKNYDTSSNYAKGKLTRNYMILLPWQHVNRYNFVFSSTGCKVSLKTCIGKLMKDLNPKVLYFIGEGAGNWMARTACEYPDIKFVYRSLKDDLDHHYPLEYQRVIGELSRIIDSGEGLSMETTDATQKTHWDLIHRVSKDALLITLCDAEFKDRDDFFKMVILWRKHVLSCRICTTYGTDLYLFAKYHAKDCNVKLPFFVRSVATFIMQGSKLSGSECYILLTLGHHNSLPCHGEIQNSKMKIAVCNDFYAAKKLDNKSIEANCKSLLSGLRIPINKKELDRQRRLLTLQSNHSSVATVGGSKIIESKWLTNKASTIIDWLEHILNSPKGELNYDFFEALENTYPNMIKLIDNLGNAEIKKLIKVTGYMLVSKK
pIC50: −log10 of the molar value.
observationType: pIC50

Task: Param readout= pIC50; system= hMPV MTase (Human metapneumovirus); entry= COc1nc(N)ncc1-c1cn(COCCOP(=O)(O)OP(=O)(O)OP(=O)(O)O)cn1 ; returns value.
Output: ~4.51

* * *

Target: Zika virus NS5 MTase (Zika virus, UniProt A0A024B7W1)
Construct: Zika virus NS5 MTase: 500 nM
Sequence (A0A024B7W1 2521-2785 limits assumed): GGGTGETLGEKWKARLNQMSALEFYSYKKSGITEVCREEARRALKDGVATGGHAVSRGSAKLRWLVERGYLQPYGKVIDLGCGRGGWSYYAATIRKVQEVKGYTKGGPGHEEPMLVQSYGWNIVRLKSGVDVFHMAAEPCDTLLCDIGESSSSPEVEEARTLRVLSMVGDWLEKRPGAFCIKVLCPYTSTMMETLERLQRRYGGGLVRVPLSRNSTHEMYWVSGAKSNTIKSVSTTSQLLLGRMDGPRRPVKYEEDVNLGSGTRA
Test: biochemical
Conditions: IC50 Zika NS5-MTase
observationType: IC50

Task: What does the data say about its IC50? Entry: COc1nc(N)ncc1-c1cn(COCCOP(=O)(O)OP(=O)(O)OP(=O)(O)O)cn1
Output: ~22 µM

* * *

Assay: in vitro
Conditions: human
observationType: CC50

Task: What does the data say about its CC50? Entry: COc1nc(N)ncc1-c1cn(COCCOC(C)=O)cn1 [Compound 2]
Output: > 100 µM

* * *

Listed here: items and their measured CC50.
Test system: Huh7 cells
Conditions: human

CCC(CC)OC(=O)[C@@H](C)N[P@](=O)(OCCOCn1cnc(-c2cnc(N)nc2OC)c1)Oc1ccccc1 : > 50 µM

Task: What does the data say about its CC50? Entry: COc1nc(N)ncc1-c1cn(COCCO)cn1
Output: > 50 µM
